- Study system: T1, hLon (human Lon protease) (Homo sapiens, UniProt P36776 68-959)
- T1 sequence: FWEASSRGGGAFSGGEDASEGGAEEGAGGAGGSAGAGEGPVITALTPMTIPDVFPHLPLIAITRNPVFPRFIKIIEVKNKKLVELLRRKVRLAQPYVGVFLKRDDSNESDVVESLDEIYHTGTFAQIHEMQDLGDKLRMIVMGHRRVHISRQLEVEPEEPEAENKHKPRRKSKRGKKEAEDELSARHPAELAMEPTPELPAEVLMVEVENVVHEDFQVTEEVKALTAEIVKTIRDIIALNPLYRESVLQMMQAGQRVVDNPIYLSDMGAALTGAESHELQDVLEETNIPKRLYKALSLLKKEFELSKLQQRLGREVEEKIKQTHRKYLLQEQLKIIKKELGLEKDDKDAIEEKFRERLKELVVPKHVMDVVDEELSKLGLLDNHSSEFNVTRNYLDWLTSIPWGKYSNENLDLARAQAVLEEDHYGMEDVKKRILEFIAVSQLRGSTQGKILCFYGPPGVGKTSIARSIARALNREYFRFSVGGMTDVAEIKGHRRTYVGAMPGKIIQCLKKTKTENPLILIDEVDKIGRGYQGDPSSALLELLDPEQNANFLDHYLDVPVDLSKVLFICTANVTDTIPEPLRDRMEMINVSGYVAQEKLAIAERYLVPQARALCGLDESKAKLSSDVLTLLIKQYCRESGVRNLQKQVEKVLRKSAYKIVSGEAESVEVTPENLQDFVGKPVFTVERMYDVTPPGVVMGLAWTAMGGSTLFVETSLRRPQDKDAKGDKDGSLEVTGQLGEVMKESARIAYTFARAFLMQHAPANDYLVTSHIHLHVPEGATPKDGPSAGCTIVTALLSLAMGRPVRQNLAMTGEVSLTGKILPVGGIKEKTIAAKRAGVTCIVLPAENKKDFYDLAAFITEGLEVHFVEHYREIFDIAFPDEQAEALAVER
- Procedure summary: ITC
pKd: −log10 of the molar value.
Metric: pKd

- Binder: "TGGGGGGT (structured_DNA) [TG6T]"
  Metric: "pKd"
  Recorded value: 5.13

Reference source for all entries: paper PMC2275097
